From: ChEMBL document CHEMBL4190402

target: hERG (KCNH2) (Homo sapiens, UniProt Q12809); assay: Inhibition of human ERG at a holding potential of -80 mV at 10 uM by automated patch clamp electrophysiology method
Sequence (Q12809 whole entry): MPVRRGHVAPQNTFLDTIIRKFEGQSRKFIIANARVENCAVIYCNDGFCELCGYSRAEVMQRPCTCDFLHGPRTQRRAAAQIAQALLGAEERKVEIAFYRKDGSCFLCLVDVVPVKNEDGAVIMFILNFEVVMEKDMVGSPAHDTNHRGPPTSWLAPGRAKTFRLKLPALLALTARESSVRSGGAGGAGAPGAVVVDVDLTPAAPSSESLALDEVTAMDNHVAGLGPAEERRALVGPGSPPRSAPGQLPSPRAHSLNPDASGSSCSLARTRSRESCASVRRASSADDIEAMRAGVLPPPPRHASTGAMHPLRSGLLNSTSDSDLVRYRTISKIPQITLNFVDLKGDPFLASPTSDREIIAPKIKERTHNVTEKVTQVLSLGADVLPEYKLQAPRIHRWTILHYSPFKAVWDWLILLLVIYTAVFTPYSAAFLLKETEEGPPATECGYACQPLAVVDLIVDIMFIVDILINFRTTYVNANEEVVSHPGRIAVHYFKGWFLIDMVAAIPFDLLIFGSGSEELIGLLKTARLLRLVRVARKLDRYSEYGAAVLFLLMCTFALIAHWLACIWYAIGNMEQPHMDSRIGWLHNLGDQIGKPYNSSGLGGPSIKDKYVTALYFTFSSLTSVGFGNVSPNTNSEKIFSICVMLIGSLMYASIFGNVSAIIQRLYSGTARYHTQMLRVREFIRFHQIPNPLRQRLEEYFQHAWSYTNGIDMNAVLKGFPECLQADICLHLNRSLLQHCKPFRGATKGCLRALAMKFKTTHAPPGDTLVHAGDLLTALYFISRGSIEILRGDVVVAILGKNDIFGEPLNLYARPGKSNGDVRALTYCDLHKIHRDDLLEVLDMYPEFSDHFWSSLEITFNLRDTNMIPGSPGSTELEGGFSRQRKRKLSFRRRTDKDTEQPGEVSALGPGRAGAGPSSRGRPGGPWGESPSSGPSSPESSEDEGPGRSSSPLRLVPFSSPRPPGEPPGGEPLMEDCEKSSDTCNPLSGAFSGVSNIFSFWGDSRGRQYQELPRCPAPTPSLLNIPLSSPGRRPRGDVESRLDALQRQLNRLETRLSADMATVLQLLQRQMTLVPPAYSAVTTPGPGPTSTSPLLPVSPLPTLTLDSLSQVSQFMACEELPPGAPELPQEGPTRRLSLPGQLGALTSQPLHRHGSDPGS
Parameter: inhibition at 10 µM (%)
All answers are understood in %, so give the number only.

Record `Cc1cc(N(C)C(N)=O)cc(C)c1CCS(=O)(=O)N1CCC2(CC1)N=C([C@H]1CC[C@H](C)CC1)NC2=O` ; system hERG (KCNH2) (Homo sapiens, UniProt Q12809); inhibition at 10 µM = 10

* * *

assay: Volume of distribution at steady state in Crl:CD/SD IGS, CRJ rat at 3 mg/kg, iv by LC-MS/MS analysis; type: ADME, organism-based; conditions: in vivo, read-out: Vdss
Parameter: Vd

The compound identified as `Cc1cc(N(C)C(N)=O)cc(C)c1CCS(=O)(=O)N1CCC2(CC1)N=C([C@H]1CC[C@H](C)CC1)NC2=O` registered its Vd at 0.395 L/kg

* * *

assay: Tmax in Crl:CD/SD IGS, CRJ rat at 3 mg/kg, po by LC-MS/MS analysis; assay type: ADME, organism-based; conditions: in vivo
Parameter: Tmax (h)
API: value field is a number in h; no unit string.

So, `Cc1cc(N(C)C(N)=O)cc(C)c1CCS(=O)(=O)N1CCC2(CC1)N=C([C@H]1CC[C@H](C)CC1)NC2=O` ? Its Tmax was 1

* * *

assay: Cmax in Crl:CD/SD IGS, CRJ rat at 3 mg/kg, po by LC-MS/MS analysis; format: ADME, organism-based; design: dose 3 mg/kg, route oral; conditions: in vivo
Parameter: Cmax

Looking up `Cc1cc(N(C)C(N)=O)cc(C)c1CCS(=O)(=O)N1CCC2(CC1)N=C([C@H]1CC[C@H](C)CC1)NC2=O` , I found its Cmax recorded as 1360 ng/mL

* * *

assay: Oral bioavailability in Crl:CD/SD IGS, CRJ rat at 3 mg/kg by LC-MS/MS analysis; type: ADME, organism-based; conditions: in vivo
Parameter: bioavailability (%)
Number only, in %; omit the unit.

Reported bioavailability ( `Cc1cc(N(C)C(N)=O)cc(C)c1CCS(=O)(=O)N1CCC2(CC1)N=C([C@H]1CC[C@H](C)CC1)NC2=O` ) = 55

* * *

microsomal CLint at 1 µM by entry:
assay: Intrinsic clearance in human liver microsomes assessed per mg protein at 1 uM after 30 mins in absence of NADPH by LC-MS/MS analysis; type: ADME, microsome; conditions: liver microsomes, read-out: CLH
Answers without a unit are incomplete; give the number and then its unit.

Some solved cases for reference:
Cc1cc(N2CCNC2=O)cc(C)c1CCS(=O)(=O)N1CCC2(CC1)N=C(C1CCCCC1)NC2=O = 3.4 µL/min/mg
CC(=O)Nc1ccc(CCS(=O)(=O)N2CCC3(CC2)N=C(C2CCCCC2)NC3=O)c(C)c1 = 33 µL/min/mg

Continue with the compound presented below.
So, `CC(=O)Nc1cc(C)c(CCS(=O)(=O)N2CCC3(CC2)N=C(C2CCCCC2)NC3=O)c(C)c1` ? Its microsomal CLint at 1 µM was 18 µL/min/mg

* * *

experiment: Half life in Crl:CD/SD IGS, CRJ rat at 3 mg/kg, po by LC-MS/MS analysis; assay type: ADME, organism-based; conditions: in vivo
Parameter: half-life (h)
# output: bare number, implied unit h

Note to self: half-life recorded for `Cc1cc(N(C)C(N)=O)cc(C)c1CCS(=O)(=O)N1CCC2(CC1)N=C([C@H]1CC[C@H](C)CC1)NC2=O` was 1
